Substrate: vinyl acetate
Condition details: pH 7; 25 °C
Measure name: kcat
In your response, put the unit directly after the numeric value.

>>> observed_measurement("unnamed (protein) MVLKQRANYLGFLIVFFTAFLVEAVPIKRQSNSTVDSLPPLIPSRTSAPSSSPSTTDPEAPAMSRNGPLPSDVETKYGMALNATSYPDSVVQAMSIDGGIRAATSQEINELTYYTTLSANSYCRTVIPGATWDCIHCDATEDLKIIKTWSTLIYDTNAMVARGDSEKTIYIVFRGSSSIRNWIADLTFVPVSYPPVSGTKVHKGFLDSYGEVQNELVATVLDQFKQYPSYKVAVTGHSLGGATALLCALDLYQREEGLSSSNLFLYTQGQPRVGDPAFANYVVSTGIPYRRTVNERDIVPHLPPAAFGFLHAGEEYWITDNSPETVQVCTSDLETSDCSNSIVPFTSVLDHLSYFGINTGLCT")
"950 s⁻¹"
>>> observed_measurement("unnamed (protein) MRSSLVLFFVSAWTALASPIRREVSQDLFNQFNLFAQYSAAAYCGKNNDAPAGTNITCTGNACPEVEKADATFLYSFEDSGVGDVTGFLALDNTNKLIVLSFRGSRSIENWIGNLNFDLKEINDICSGCRGHDGFTSSWRSVADTLRQKVEDAVREHPDYRVVFTGHSLGGALATVAGADLRGNGYDIDVFSYGAPRVGNRAFAEFLTVQTGGTLYRITHTNDIVPRLPPREFGYSHSSPEYWIKSGTLVPVTRNDIVKIEGIDATGGNNQPNIPDIPAHLWYFGLIGTCL")
"455 s⁻¹"
>>> observed_measurement("unnamed (protein) MLDMPIDPVYYQLAEYFDSLPKFDQFSSAREYREAINRIYEERNRQLSQHERVERVEDRTIKGRNGDIRVRVYQQKPDSPVLVYYHGGGFVICSIESHDALCRRIARLSNSTVVSVDYRLAPEHKFPAAVYDCYDATKWVAENAEELRIDPSKIFVGGDSAGGNLAAAVSIMARDSGEDFIKHQILIYPVVNFVAPTPSLLEFGEGLWILDQKIMSWFSEQYFSREEDKFNPLASVIFADLENLPPALIITAEYDPLRDEGEVFGQMLRRAGVEASIVRYRGVLHGFINYYPVLKAARDAINQIAALLVFD")
"50 s⁻¹"

With those in mind, consider the next protein.
Problem: Which kcat value is on record for unnamed (protein) MAKKDEHLRKPEWLKIKLNTNENYTGLKKLMRENNLHTVCEEAKCPNIHECWAVRRTATFMILGSVCTRACRFCAVKTGLPTELDLQEPERVADSVALMNLKHAVITAVARDDQKDGGAGIFAETVRAIRRKSPFTTIEVLPSDMGGNYDNLKTLMDTRPDILNHNIETVRRLTPRVRARATYDRSLEFLRRAKEMQPDIPTKSSIMIGLGETKEEIIEVMDDLLANNVDIMAIGQYLQPTKKHLKVQKYYHPDEFAELKEIAMQKGFSHCEAGPLVRSSYHADEQVNEASKKRQAQA ?
Solution: 100 s⁻¹

Recorded values, source the PETadex activity labels (doi:10.1016/j.bbalip.2005.11.003).
